- test_target: T1, 人CD47蛋白胞外区融合蛋白(hCD47-ECD-6His) (human, UniProt Q08722 19-139, limits assumed)
- T1 construct: extracellular domain; Made in FreeStyle 293F cells, purified on a nickel column; not shown: linker peptide-6His (连接肽-6His)
- T1 sequence (Q08722 19-139 limits assumed): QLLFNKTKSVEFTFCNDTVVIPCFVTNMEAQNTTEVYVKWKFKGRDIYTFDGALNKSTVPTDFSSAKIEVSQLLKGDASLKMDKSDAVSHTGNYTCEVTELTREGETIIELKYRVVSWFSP
- protocol_description: ELISA, hCD47-ECD-6His coated, goat anti-mouse IgG-HRP
metric: EC50 (µg/mL)
Report the figure in µg/mL without appending any unit label.

Req: Entry 抗人CD47单克隆抗体A5 (antibody, V domains shown) VH: EVQLQQSGPELVKPGASMRMSCKASGYSFTGYTMHWVKQSHGTNLEWIGLINPYTGGTNYNQKFKGKATLTLDKSSSTAYMELLSLTSEDFAVYYCARMGLAWFAYWGQGTLVTVSA VL: DVVMTQTPLSLPVSLGDQASISCRSSQSLVHSNGNTYFHWYLQKPGQSPKLLIYKVSNRFSGVPDRFSGSGSGTDFTLKISRVEAEDLGVYFCSQSTHVPYTFGGGTKLEMK has what EC50?
Resp: 0.016
